tested on: MDA-MB-231 cells (breast cancer); assay: MTT cytotoxicity assay, MDA-MB-231; format: cell-based; settings: Homo sapiens, 24 h treatment, read-out: In Vitro Cytotoxicity IC50 MDA-MB-231
Measurement name: pIC50
Scale note: pIC50 = -log10(concentration in M).

These solved cases illustrate the format of a correct answer.
O=C(CSc1nc2ccccc2o1)NN=Cc1ccc(Cl)c(Cl)c1 (mixture of isomers) : 4.12
O=C(CSc1nc2ccccc2o1)NN=Cc1cccs1 (mixture of isomers) : 4.51
O=C(CSc1nc2ccccc2o1)NN=Cc1ccc[nH]1 (mixture of isomers) : 5.67
O=C(CSc1nc2ccccc2o1)NN=C1C(=O)Nc2ccc([N+](=O)[O-])cc21 : 4.21
COc1cc(C=NNC(=O)CSc2nc3ccccc3o2)ccc1O (mixture of isomers) : 5.31
O=C(CSc1nc2ccccc2o1)NN=C1C(=O)Nc2ccc(Cl)cc21 : 4.29
O=C(CSc1nc2ccccc2o1)NN=C1C(=O)Nc2ccc(F)cc21 : 4.17

Read the next record carefully.
-- ask Param item = Cc1ccc2c(c1)C(=NNC(=O)CSc1nc3ccccc3o1)C(=O)N2 ; retrieve measured pIC50.
-- reply 4.44

* * *

biological target: Human EGFR (Homo sapiens, UniProt P00533)
Sequence (P00533 25-1210): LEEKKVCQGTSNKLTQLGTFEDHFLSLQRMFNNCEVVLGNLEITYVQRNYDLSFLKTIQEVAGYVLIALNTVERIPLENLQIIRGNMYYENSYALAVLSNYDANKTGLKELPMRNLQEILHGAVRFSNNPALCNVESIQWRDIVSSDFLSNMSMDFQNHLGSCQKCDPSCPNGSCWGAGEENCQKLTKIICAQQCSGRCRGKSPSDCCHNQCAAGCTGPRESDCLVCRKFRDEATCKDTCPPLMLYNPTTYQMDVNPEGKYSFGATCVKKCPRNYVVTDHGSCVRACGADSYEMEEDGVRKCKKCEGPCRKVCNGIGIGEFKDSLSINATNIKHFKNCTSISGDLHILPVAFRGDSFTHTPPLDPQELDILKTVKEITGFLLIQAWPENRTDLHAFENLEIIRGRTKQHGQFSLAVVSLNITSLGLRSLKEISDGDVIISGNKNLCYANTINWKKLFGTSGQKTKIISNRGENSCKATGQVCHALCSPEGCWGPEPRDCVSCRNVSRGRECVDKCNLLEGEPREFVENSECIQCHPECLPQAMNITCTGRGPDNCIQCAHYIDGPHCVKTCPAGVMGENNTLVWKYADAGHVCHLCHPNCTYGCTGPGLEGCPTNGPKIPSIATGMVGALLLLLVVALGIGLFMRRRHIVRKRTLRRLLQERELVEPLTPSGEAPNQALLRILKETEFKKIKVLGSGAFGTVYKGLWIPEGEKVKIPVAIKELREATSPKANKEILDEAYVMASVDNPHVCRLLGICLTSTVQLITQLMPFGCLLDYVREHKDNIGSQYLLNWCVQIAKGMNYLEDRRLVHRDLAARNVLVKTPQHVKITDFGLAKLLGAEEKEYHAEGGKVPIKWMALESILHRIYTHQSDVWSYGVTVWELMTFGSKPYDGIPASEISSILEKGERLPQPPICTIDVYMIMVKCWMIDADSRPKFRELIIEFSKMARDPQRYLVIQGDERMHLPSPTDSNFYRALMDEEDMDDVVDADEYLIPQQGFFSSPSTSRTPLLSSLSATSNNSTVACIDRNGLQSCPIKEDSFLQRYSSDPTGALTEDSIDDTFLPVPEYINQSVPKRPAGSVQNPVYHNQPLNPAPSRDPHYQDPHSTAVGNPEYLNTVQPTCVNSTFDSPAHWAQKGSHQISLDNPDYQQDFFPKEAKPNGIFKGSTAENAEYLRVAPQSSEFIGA
Measurement name: pIC50
Scale note: pIC50 = -log10(concentration in M).

-- ask Param item = O=C(CSc1nc2ccccc2o1)NN=Cc1ccc[nH]1 (mixture of isomers) [Compound 6b] ; retrieve measured pIC50.
-- reply 6.55

* * *

test system: HepG2 cells (hepatocellular carcinoma); test: MTT cytotoxicity assay, HepG2; type: cell-based; settings: Homo sapiens, HepG2, 24 h, 24 h treatment, read-out: In Vitro Cytotoxicity IC50 HepG2
Measurement name: pIC50
Scale note: pIC50 = -log10(concentration in M).

These solved cases illustrate the format of a correct answer.
Cc1ccc2c(c1)C(=NNC(=O)CSc1nc3ccccc3o1)C(=O)N2 : 4.38
O=C(CSc1nc2ccccc2o1)NN=Cc1ccc(OC(F)(F)F)cc1 (mixture of isomers) : 4.88

-- ask Param item = O=C(CSc1nc2ccccc2o1)NN=C1C(=O)Nc2ccc(Cl)cc21 ; retrieve measured pIC50.
-- reply 4.35

-- ask And then O=C(CSc1nc2ccccc2o1)NN=Cc1ccc(Cl)c(Cl)c1 (mixture of isomers) , what is it?
-- reply 4.09

* * *

Listing of recorded IC50 by entry.
tested on: HepG2 cells (hepatocellular carcinoma); test: MTT cytotoxicity assay, HepG2; format: cell-based; conditions: Homo sapiens, HepG2, 24 h, 24 h treatment, read-out: In Vitro Cytotoxicity IC50 HepG2
Please give a number only; it is taken to be in µM.

These solved cases illustrate the format of a correct answer.
O=C(CSc1nc2ccccc2o1)NN=Cc1cccs1 (mixture of isomers) : 26.4
COc1ccc2c(c1)C(=NNC(=O)CSc1nc3ccccc3o1)C(=O)N2 : 10.5
O=C(CSc1nc2ccccc2o1)NN=C1C(=O)Nc2ccc(F)cc21 : 63.7

Read the next record carefully.
-- ask Param item = O=C(CSc1nc2ccccc2o1)NN=C1C(=O)Nc2ccc([N+](=O)[O-])cc21 ; retrieve measured IC50.
-- reply 56.2

* * *

Listing of recorded melting point by entry.

O=C(CSc1nc2ccccc2o1)NN=C1C(=O)Nc2ccc([N+](=O)[O-])cc21 : 165 to 167 °C
O=C(CSc1nc2ccccc2o1)NN=Cc1cccs1 (mixture of isomers) : 218 to 221 °C

-- ask Param item = COc1cc(C=NNC(=O)CSc2nc3ccccc3o2)ccc1O (mixture of isomers) ; retrieve measured melting point.
-- reply 150 to 153 °C

-- ask And then O=C(CSc1nc2ccccc2o1)NN=C1C(=O)Nc2ccc(F)cc21 , what is it?
-- reply 225 to 227 °C

-- ask And then O=C(CSc1nc2ccccc2o1)NN=Cc1ccc(OC(F)(F)F)cc1 (mixture of isomers) , what is it?
-- reply 154 to 156 °C

-- ask And then O=C(CSc1nc2ccccc2o1)NN=Cc1ccc(Cl)c(Cl)c1 (mixture of isomers) , what is it?
-- reply 193 to 195 °C

The origin of these recorded values is paper PMC9863562.
